# Target: wild type transthyretin (WT-TTR) (Homo sapiens)
# Construct: made in house; host or cells: E. coli BL21 (DE3), pET23a plasmid
# Assay Overview: WT-TTR amyloid fibril formation assay (turbidimetry, acid-induced)
# Assay type: biochemical
# Experimental Conditions: read-out: IC50 (μM), concentration inhibiting WT-TTR amyloid fibril formation by 50%; WT-TTR fixed at 3.6 μM, ten compound concentrations, pH 4.4, 72 hours
Property: IC50 (µM)
// units = µM; emit number, no label

Request: So what's the measured IC50 for this one? Oc1c(Cl)cc(-c2cc(Cl)c(O)c(Cl)c2)cc1Cl [2OH- PCB80, reference compound]
Response: 1.59

* * *

# Target: wild type transthyretin (WT-TTR) (Homo sapiens, UniProt P02766)
# Construct: made in house; host or cells: E. coli BL21 (DE3), pET23a plasmid
# Assay Overview: WT-TTR amyloid fibril formation assay (turbidimetry, acid-induced)
# Format: biochemical
# Experimental Conditions: WT-TTR fixed at 3.6 μM, ten compound concentrations, pH 4.4, 72 hours
Some molecules, each annotated with its measured pIC50.
Answer as the number alone; pIC50 is minus log10 of concentration in mol/L.

Illustrative cases are given below, each with its answer.
INSERT INTO assay_data (molecule, value_reported) VALUES
  ('O=C(O)CC[C@@H](C(=O)O)N1C(=O)/C(=C/c2ccc(O)c(Br)c2)SC1=S [AT50-C01]', 5.86),
  ('COc1cc(/C=C2/SC(=S)N(CC(=O)O)C2=O)cc(Cl)c1O [AT50-A00 (E)]', 5.76),
  ('Cc1cc(/C=C2\SC(=S)N(CC(=O)O)C2=O)cc(O)c1O [AT50-A35]', 5.65);

Now for the molecule whose pIC50 we want.
Request: So what's the measured pIC50 for this one? O=C(O)CN1C(=O)/C(=C/c2cc(Br)c(O)c(Br)c2)SC1=S [AT50-A50]
Response: 6.05

* * *

Some molecules, each annotated with its measured melting point.

Illustrative cases are given below, each with its answer.
INSERT INTO assay_data (smiles_repr, value_reported) VALUES
  ('Cc1cc(/C=C2\SC(=S)N(CCCC(=O)O)C2=O)cc(C)c1O', '250 to 252 °C'),
  ('O=C(O)CN1C(=O)/C(=C/c2ccc(O)cc2)SC1=S', '213 to 214 °C'),
  ('O=C(O)CN1C(=O)/C(=C/c2cc(O)c(O)c(Cl)c2)SC1=S', '241 to 242 °C'),
  ('Cc1cc(/C=C2\SC(=S)N(CC(=O)O)C2=O)cc(O)c1O', '238 to 239 °C'),
  ('O=C(O)CN1C(=O)/C(=C/c2cc(F)c(O)c(F)c2)SC1=S', '221 to 222 °C');

Request: So what's the measured melting point for this one? Cc1cc(/C=C2\SC(=S)N(CCC(=O)O)C2=O)cc(C)c1O
Response: 253 to 254 °C

Request: So what's the measured melting point for this one? O=C(O)CCCN1C(=O)/C(=C/c2cc(Cl)c(O)c(Cl)c2)SC1=S
Response: 247 to 249 °C

Request: So what's the measured melting point for this one? O=C(O)CCN1C(=O)/C(=C/c2cc(O)c(O)c(Cl)c2)SC1=S
Response: 243 to 245 °C

Request: So what's the measured melting point for this one? COc1cc(/C=C2\SC(=S)N(CC(=O)O)C2=O)cc(C)c1O
Response: 238 to 239 °C

Request: So what's the measured melting point for this one? O=C(O)CN1C(=O)/C(=C/c2cc(F)cc(F)c2)SC1=S
Response: 225 to 227 °C

Request: So what's the measured melting point for this one? Cc1cc(/C=C2\SC(=S)N(CC(=O)O)C2=O)cc(C)c1O
Response: 261 to 263 °C

Request: So what's the measured melting point for this one? COc1cc(/C=C2\SC(=S)N(CCC(=O)O)C2=O)cc(C)c1O
Response: 194 to 196 °C

Request: So what's the measured melting point for this one? O=C(O)CN1C(=O)/C(=C/c2cc(Cl)c(O)c(Cl)c2)SC1=S
Response: 262 to 264 °C

Request: So what's the measured melting point for this one? O=C(O)CCCN1C(=O)/C(=C/c2cc(F)c(O)c(F)c2)SC1=S
Response: 207 to 209 °C

Request: So what's the measured melting point for this one? O=C(O)CCN1C(=O)/C(=C/c2cc(F)c(O)c(F)c2)SC1=S
Response: 216 to 217 °C

Request: So what's the measured melting point for this one? O=C(O)CN1C(=O)/C(=C/c2cc(Cl)cc(Cl)c2)SC1=S
Response: 272 to 273 °C

Request: So what's the measured melting point for this one? Cc1cc(/C=C2\SC(=S)N(CCC(=O)O)C2=O)cc(O)c1O
Response: 221 to 222 °C

Request: So what's the measured melting point for this one? O=C(O)CCN1C(=O)/C(=C/c2cc(Cl)c(O)c(Cl)c2)SC1=S
Response: 259 to 260 °C

Request: So what's the measured melting point for this one? O=C(O)CCN1C(=O)/C(=C/c2cc(Cl)cc(Cl)c2)SC1=S
Response: 245 to 247 °C
